Target Of Assay: PCSK9 (Homo sapiens)
Construct: biotin (biotinylated)
Sequence (Q8NBP7 153-692): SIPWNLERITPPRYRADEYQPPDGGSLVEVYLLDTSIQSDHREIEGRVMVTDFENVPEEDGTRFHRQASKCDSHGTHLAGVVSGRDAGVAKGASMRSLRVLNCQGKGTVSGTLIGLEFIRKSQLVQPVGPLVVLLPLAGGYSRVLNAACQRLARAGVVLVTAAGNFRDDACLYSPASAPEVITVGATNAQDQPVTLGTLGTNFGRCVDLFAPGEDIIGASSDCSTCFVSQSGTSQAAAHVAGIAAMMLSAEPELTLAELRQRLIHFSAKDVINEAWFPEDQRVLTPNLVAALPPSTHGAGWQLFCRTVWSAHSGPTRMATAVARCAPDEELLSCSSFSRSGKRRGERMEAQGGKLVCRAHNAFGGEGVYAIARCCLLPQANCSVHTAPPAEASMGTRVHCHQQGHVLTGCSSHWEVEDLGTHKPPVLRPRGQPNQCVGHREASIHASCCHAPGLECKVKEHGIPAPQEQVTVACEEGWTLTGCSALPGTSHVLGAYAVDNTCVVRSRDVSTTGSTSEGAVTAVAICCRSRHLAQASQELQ
Experiment: PCSK9 Alexa FRET Plus assay (displacement of AlexaFluor647 tagged cyclic peptide Reagent B)
Format: binding
Test Settings: 0.5 nM PCSK9, 960 nM AF cyclic peptide Reagent B
Numbered stars: 1 amine (or outer) side, 2 acyl side, 3 side chain; on linkers, the order of the positions; unused ones are H or OH. Bridge positions count the residues as written; N and C are the ends. Square brackets hold non-standard residues; d marks the D form. Peptide text beside a SMILES is read from it. Trp(5-F) = N[C@@H](Cc1c[nH]c2ccc(F)cc12)C(=O)O; mXylylene = c1cc(C[*:1])cc(C[*:2])c1; Bta = N[C@@H](Cc1csc2ccccc12)C(=O)O; Mpa = O=C(O)CCS
Measurement Label: IC50

Input: Field request: IC50 | item: C[C@@H]1NC(=O)[C@@H]2CCCN2C(=O)[C@H](Cc2csc3ccccc23)NC(=O)[C@H](Cc2c[nH]c3ccc(F)cc23)NC(=O)CNC(=O)[C@H](CCCCN)NC(=O)CCSCc2cccc(c2)CSC[C@@H](C(N)=O)NC(=O)[C@@H]2CCCN2C(=O)[C@H](Cc2ccc(O)cc2)NC1=O [Compound 024] ([Mpa]KG[Trp(5-F)][Bta]PAYPC-NH2; linker 1-10 via mXylylene)
Output: 1 to 100 nM

---

Target Of Assay: human PCSK9 / human LDLR EGFa domain (Homo sapiens, UniProt Q8NBP7)
Experiment: TR-FRET assay of inhibition of the PCSK9-LDLR protein-protein interaction
Test Settings: 20 nM human PCSK9, 20 nM human LDLR EGFa domain, 2 hours room temperature
pIC50: −log10 of the molar value. Numbered stars: 1 amine (or outer) side, 2 acyl side, 3 side chain; on linkers, the order of the positions; unused ones are H or OH. Bridge positions count the residues as written; N and C are the ends. Square brackets hold non-standard residues; d marks the D form. Peptide text beside a SMILES is read from it. Trp(5-F) = N[C@@H](Cc1c[nH]c2ccc(F)cc12)C(=O)O; 1Nal = N[C@@H](Cc1cccc2ccccc12)C(=O)O; mXylylene = c1cc(C[*:1])cc(C[*:2])c1; Mpa = O=C(O)CCS
Task for the reader: assign each of the following molecules its reported pIC50.

Past entries and their recorded results:
1) COc1ccc(C[C@@H]2NC(=O)[C@H](C)NC(=O)CN3CCCCCCCCCN(CC(=O)N[C@@H](Cc4c[nH]c5ccc(F)cc45)C3=O)C(=O)CNC(=O)CCCCCNC(=O)c3ccc(cc3)C[C@@H](C(N)=O)NC(=O)[C@]3(C)CCCN3C2=O)cc1
6.00 to 7.00
2) COc1ccc(C[C@@H]2NC(=O)[C@H](C)NC(=O)[C@@H]3CCCN3C(=O)[C@@H]3Cc4cn(c5ccc(F)cc45)Cc4cn(nn4)-c4c(cccc4CSCCC(=O)N[C@H](C)C(=O)NCC(=O)N[C@@H](Cc4c[nH]c5ccc(F)cc45)C(=O)N3)CSCCNC(=O)[C@]3(C)CCCN3C2=O)cc1
6.00 to 7.00

Kindly consider the entry below.
Input: Field request: pIC50 | item: C[C@@H]1NC(=O)[C@@H]2CCCN2C(=O)[C@H](Cc2cccc3ccccc23)NC(=O)[C@H](Cc2c[nH]c3ccc(F)cc23)NC(=O)CNC(=O)[C@H](CCCCN)NC(=O)CCSCc2cccc(c2)CSC[C@@H](C(N)=O)NC(=O)[C@@H]2CCCN2C(=O)[C@H](Cc2ccc(O)cc2)NC1=O [Compound 012] ([Mpa]KG[Trp(5-F)][1Nal]PAYPC-NH2; linker 1-10 via mXylylene)
Output: 7.00 to 9.00
